Please provide measured Dissolution capacity for DIOXACARB for the entries that follow.
assay: Dissolution capacity of diluents/solvents for Dioxacarb and Arprocarb; assay type: physicochemical
Numbers only, in weight %.

// below: answered compounds
• CCCCC = 0.2
• CCO = 0.2
• CC(C)=O = 28
• c1ccccc1 = 3
• COCCO = 15
• ClC(Cl)Cl = 34

Batch request: Dissolution capacity for DIOXACARB for each of the following compounds.
1. ClCCl
2. CCCCOC(C)=O [Butylacetate]

Response:
1. 45
2. 5

###

Please provide measured Dissolution capacity for DIOXACARB for the entries that follow.
assay: Dissolution capacity of diluents/solvents for Dioxacarb and Arprocarb; format: physicochemical; conditions: at 20° C; solute Dioxacarb
Numbers only, in weight %.

// below: answered molecules
* CCCCCCCCOC(=O)c1ccccc1C(=O)OCCCCCCCC [Dioctylphthalate] | 0.1
* CCCCCCCCCCCCCCBr [1-Bromotetradecane] | 0.1
* ClC=C(Cl)Cl [Trichloroethylene] | 2
* CC(=O)OC(C)C [Isopropylacetate] | 6
* CCCCCCCCCCCCC1CC(=O)OC1=O (centres unmarked) [2-Dodecylsuccinic-acid anhydride] | 2.9

Batch request: Dissolution capacity for DIOXACARB for each of the following molecules.
1. CCCOC(C)=O [Propylacetate]
2. CCCCCC [Hexane]

Response:
1: 6; 2: 0.2

Request: What value of measured Dissolution capacity for DIOXACARB is listed for CCOC(=O)CC [Ethylpropionate] ?
Response: 9

Where do the numbers come from? From patent US4067990A.
